We begin with a simple list: items and their reported whole-cell filipin (z-score).
- System: A431
- MEASUREMENT DESCRIPTION: whole-cell filipin (free cholesterol) integrated intensity, Z-score; higher = more cholesterol staining
- PARTICULARS: compound concentration in added solution (µM; 5 µl added to 20 µl cells): 10; 18 h
Where a name gives a salt, the structure may show the parent alone.
MEASURE: whole-cell filipin (z-score)

[[record]]
molecule = "CC(C)NCC(O)c1ccc(O)c(O)c1 (single isomer, unassigned; (+)) [(+)-Isoproterenol (+)-bitartrate salt]"
measure = "whole-cell filipin (z-score)"
recorded_measurement = -0.262

[[record]]
molecule = "CC[C@H]1OC(=O)[C@H](C)[C@@H](O[C@H]2C[C@@](C)(OC)[C@@H](O)[C@H](C)O2)[C@H](C)[C@@H](O[C@@H]2O[C@H](C)C[C@H](N(C)C)[C@H]2O)[C@](C)(O)C[C@@H](C)[C@@H]2N[C@@H](COCCOC)O[C@H]([C@H]2C)[C@]1(C)O"
measure = "whole-cell filipin (z-score)"
recorded_measurement = -0.786

[[record]]
molecule = "CCCCN(CCCC)CCCOC(=O)c1ccc(N)cc1"
measure = "whole-cell filipin (z-score)"
recorded_measurement = -0.324

[[record]]
molecule = "CC(=O)SCC(Cc1ccccc1)C(=O)NCC(=O)OCc1ccccc1 (stereo not drawn)"
measure = "whole-cell filipin (z-score)"
recorded_measurement = -0.139

[[record]]
molecule = "CC1=C(/C=C/C(C)=C/C=C/C(C)=C\\C(=O)O)C(C)(C)CCC1"
measure = "whole-cell filipin (z-score)"
recorded_measurement = -0.622

[[record]]
molecule = "CC(C[N+](C)(C)C)OC(N)=O (stereo not drawn) [Bethanechol chloride]"
measure = "whole-cell filipin (z-score)"
recorded_measurement = -0.316

[[record]]
molecule = "O=C1NCC2(CCN(CCc3ccccc3)CC2)O1 [Fenspiride hydrochloride]"
measure = "whole-cell filipin (z-score)"
recorded_measurement = -1.07

[[record]]
molecule = "Nc1cc(N2CCCCC2)nc(N)[n+]1[O-]"
measure = "whole-cell filipin (z-score)"
recorded_measurement = -0.274


----------
- System: HeLa MZ
- MEASUREMENT DESCRIPTION: whole-cell filipin (free cholesterol) integrated intensity, Z-score; higher = more cholesterol staining
- PARTICULARS: compound concentration in added solution (µM; 5 µl added to 20 µl cells): 10; 18 h
Counter-ions that a name gives are not always drawn.
Classify by measured whole-cell filipin (z-score): Y if it is equal to or exceeds -0.07, N if it is smaller.

[[record]]
compound = "CCN1C(=O)NC(c2ccccc2)C1=O (stereo not given)"
class_assignment = "N"

[[record]]
compound = "CCCCN(CCCC)CCC(O)c1cc2c(Cl)cc(Cl)cc2c2cc(C(F)(F)F)ccc12 (stereo not given) [Halofantrine hydrochloride]"
class_assignment = "Y"

[[record]]
compound = "CN(C/C=C/c1ccccc1)Cc1cccc2ccccc12 [Naftifine hydrochloride]"
class_assignment = "N"

[[record]]
compound = "CC[C@]12CCCN3CCc4c(n(c5ccccc45)C(=O)C1)[C@@H]32 [Eburnamonine (-)]"
class_assignment = "N"


----------
- System: HeLa MZ
- MEASUREMENT DESCRIPTION: filipin (cholesterol) integrated intensity within LBPA endosomes, Z-score; higher = more cholesterol in LBPA endosomes
- PARTICULARS: compound concentration in added solution (µM; 5 µl added to 20 µl cells): 10; 18 h
Where a name gives a salt, the structure may show the parent alone.
MEASURE: filipin (z-score)

[[record]]
molecule = "Clc1ccc(C(Cn2ccnc2)OCc2c(Cl)cccc2Cl)c(Cl)c1 (configuration not stated)"
measure = "filipin (z-score)"
recorded_measurement = 0.0567

[[record]]
molecule = "NCCCC[C@H](N[C@@H](CCc1ccccc1)C(=O)O)C(=O)N1CCC[C@H]1C(=O)O"
measure = "filipin (z-score)"
recorded_measurement = -0.71

[[record]]
molecule = "CCN1CCCC(OC(=O)C(c2ccccc2)c2ccccc2)C1 (configuration not stated) [Piperidolate hydrochloride]"
measure = "filipin (z-score)"
recorded_measurement = 0.861

[[record]]
molecule = "CNCC(O)c1ccc(O)c(O)c1 (configuration not stated) [Racepinephrine HCl]"
measure = "filipin (z-score)"
recorded_measurement = -0.366

[[record]]
molecule = "CCN(CC)CCOC(=O)C(c1ccccc1)c1ccccc1 [Adiphenine hydrochloride]"
measure = "filipin (z-score)"
recorded_measurement = -0.637

[[record]]
molecule = "C#C[C@]1(O)CC[C@H]2[C@@H]3[C@H](C)CC4=C(CCC(=O)C4)[C@H]3CC[C@@]21C"
measure = "filipin (z-score)"
recorded_measurement = -0.561

[[record]]
molecule = "COc1ccc(C(=O)c2ccccc2O)c(O)c1"
measure = "filipin (z-score)"
recorded_measurement = -0.234

[[record]]
molecule = "Nc1ccc(S(=O)(=O)Nc2cnc3ccccc3n2)cc1 [Sulfaquinoxaline sodium salt]"
measure = "filipin (z-score)"
recorded_measurement = -0.432

[[record]]
molecule = "CN(C)CCN(Cc1cccs1)c1ccccn1 [Methapyrilene hydrochloride]"
measure = "filipin (z-score)"
recorded_measurement = -0.0761

[[record]]
molecule = "O=C(c1ccccc1)c1ccc2n1CCC2C(=O)O (configuration not stated)"
measure = "filipin (z-score)"
recorded_measurement = -0.538

[[record]]
molecule = "CS(=O)(=O)c1ccc(C2=C(c3ccccc3)C(=O)OC2)cc1"
measure = "filipin (z-score)"
recorded_measurement = -0.599

[[record]]
molecule = "C=C1C[C@H]2[C@@H]3C=C(C)C4=CC(=O)CC[C@]4(C)[C@H]3CC[C@]2(C)[C@@]1(OC(C)=O)C(C)=O [Melengestrol acetate]"
measure = "filipin (z-score)"
recorded_measurement = 1.05

[[record]]
molecule = "CN[C@@H]1[C@@H](O[C@H]2O[C@H](CO)[C@@H](N)[C@H](O)[C@H]2O)OC2C[C@@H](N)[C@@H](O[C@H]3[C@H](O)[C@@H](O)[C@H](N)C[C@@H]3N)OC2[C@@H]1O (some centres not stated)"
measure = "filipin (z-score)"
recorded_measurement = -0.523

[[record]]
molecule = "COc1ccc(C2CNC(=O)C2)cc1OC1CCCC1 (configuration not stated)"
measure = "filipin (z-score)"
recorded_measurement = -0.525

[[record]]
molecule = "CN/C(=N\\CCSCc1nc[nH]c1C)NC#N"
measure = "filipin (z-score)"
recorded_measurement = -0.409

[[record]]
molecule = "CCCCOC(=O)c1ccc(O)cc1"
measure = "filipin (z-score)"
recorded_measurement = -0.449

[[record]]
molecule = "COC(=O)[C@@H]1[C@H]2C[C@H]3c4[nH]c5ccccc5c4CCN3C[C@@H]2CC[C@@H]1O [Yohimbine hydrochloride]"
measure = "filipin (z-score)"
recorded_measurement = -0.333


The values you see were collected from the supplement of paper PMC6607015.
